Field: Optical Density. Provide a value for each of the binders that follow.
measurement-target: T1, streptavidin (UniProt P22629 37-163, limits assumed)
T1 construct: control well without peptide
T1 sequence (P22629 37-163 limits assumed): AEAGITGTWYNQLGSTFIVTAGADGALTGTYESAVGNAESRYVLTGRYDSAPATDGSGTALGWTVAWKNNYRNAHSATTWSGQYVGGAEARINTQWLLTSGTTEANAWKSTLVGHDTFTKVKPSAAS
assay-info: ELISA, soluble Fab on streptavidin-coated control well without peptide
Answer by giving the amount and then stating its unit.

Per the records, this binder ( 3-63 (Fab, V domains shown, soluble Fab from phage display library huFabL-4, Flag tag) VH: QVQLQESGGGVVQPGRSLRLSCAASGFTFSSYGMHWVRQAPGKGLEWVAVISYDGSNKYYADSVKGRFTISRDNSKNTLYLQMNSLRAEDTAVYYCARDRPGGMDVWGKGTMVTVSS VL: DVVMTQSPLSLPVTLGQPASISCRSSQSLVHSNGNTYLTWFQQRPGQSPRRLIYKVSNRDSGVPDRFSGSGSGTDFTLKISRVEAEDVGVYYCMQGTRWYTFGQGTKLEIKR ) has Optical Density equal to 0.09 OD450

Per the records, this binder ( 3-68 (Fab, V domains shown, soluble Fab from phage display library huFabL-4, Flag tag) VH: QVQLQQSGPGLVKPSQTLSLTCAISGDSVSRNTAAWNWIRQSPSRGLEWLGRTYYRSKWYNDYAVSVKSRITIRPDTSKNQISLQLTSVTPEDTAVYYCARGVHNAFDIWGRGTMVTVSS VL: ETTLTQSPGTLSLSPGERATLSCRASQSVGNRYLAWYQQKPGQAPRLLIYGASSRATGIPDRFSGSGSGTDFTLTISRLEPEDFAVYYCQQYSGSTGYTFGQGTKLEIKR ) has Optical Density equal to 0.06 OD450

Per the records, this binder ( 3-65 (Fab, V domains shown, soluble Fab from phage display library huFabL-4, Flag tag) VH: QVTLKESGGGVVQPGRSLRLSCAASEFTFRNYAMHWVRQAPGKGLEWVAVISYDGSNKYYADSVKGRFTISRDISKNMVFLQMNSLRADDTAVYYCARGTFLAYWGQGTLVTVSS VL: EIVLTQSPLSLPVTLGQPASISCRSSQSLVHSDGNTYLSWFQQRPGQSPRRLIYKVSNRDSGVPDRFSGSGSGTDFTLKISRVEAEDVGVYYCMQGIHLPLTFGGGTKLEIKR ) has Optical Density equal to 0.07 OD450
